Value source: ChEMBL document CHEMBL5338811

Test: Metabolic stability in mouse liver microsomes assessed as clearance per mg protein at 5 uM preincubated for 10 mins followed by UDPGA addition and measured upto 60 mins by LC-MS/MS analysis
Format: ADME, Microsome
Settings: time < 70 min, read-out: CLH
readout_kind: microsomal CLint at 5 µM (µL/min/mg)

(P) O=c1ccc2ccc(O)cc2o1
(Q) CCOc1ccc2ccc(=O)oc2c1
Query string: Please compare: P and Q . Report which one has the smaller microsomal CLint at 5 µM value. Answer by stating the label of the chosen item.
Result string: Q
